# pIC50 per record follows
Target: UniProt:P33981
Sequence (P33981 1-857): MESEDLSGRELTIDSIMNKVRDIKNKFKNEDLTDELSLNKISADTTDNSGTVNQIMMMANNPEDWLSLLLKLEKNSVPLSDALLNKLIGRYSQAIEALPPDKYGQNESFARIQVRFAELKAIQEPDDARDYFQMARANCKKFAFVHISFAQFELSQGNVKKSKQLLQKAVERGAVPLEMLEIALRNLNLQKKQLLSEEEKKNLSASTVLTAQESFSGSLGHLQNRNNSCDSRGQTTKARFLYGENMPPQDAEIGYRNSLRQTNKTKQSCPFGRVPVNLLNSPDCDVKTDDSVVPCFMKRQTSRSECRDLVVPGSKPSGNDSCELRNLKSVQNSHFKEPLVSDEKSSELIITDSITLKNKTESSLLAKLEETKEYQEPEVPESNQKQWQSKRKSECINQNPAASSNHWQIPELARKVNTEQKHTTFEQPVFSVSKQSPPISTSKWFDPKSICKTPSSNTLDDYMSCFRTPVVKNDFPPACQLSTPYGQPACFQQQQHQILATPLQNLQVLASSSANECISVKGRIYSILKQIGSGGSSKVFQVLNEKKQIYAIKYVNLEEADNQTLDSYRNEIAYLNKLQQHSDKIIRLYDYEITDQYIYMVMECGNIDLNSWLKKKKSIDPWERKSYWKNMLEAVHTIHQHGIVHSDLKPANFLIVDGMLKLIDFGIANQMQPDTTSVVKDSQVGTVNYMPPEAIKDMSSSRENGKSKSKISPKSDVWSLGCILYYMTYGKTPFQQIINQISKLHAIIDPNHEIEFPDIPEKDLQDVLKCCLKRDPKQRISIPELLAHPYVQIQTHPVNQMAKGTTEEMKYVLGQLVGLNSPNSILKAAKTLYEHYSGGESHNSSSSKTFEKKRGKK
pIC50: −log10 of the molar value.
endpoint_name: pIC50

> print(dat)
                                         smi  experimental.result
 1  c1cc(Nc2cc3[nH]c(-c4cn[nH]c4)cc3cn2)ccc1CN1CCOCC1                 8.05
 2  Cc1ccc(-n2c(-c3cnn(C)c3)cc3cnc(Nc4ccc(C(=O)N(C)C)cc4Cl)cc32)nc1                 7.37
 3  COc1cc(C(=O)N2CC(OC)C2)ccc1Nc1cc2c(cn1)cc(-c1cnco1)n2C(=O)OC(C)(C)C                 8.00
 4  N#Cc1ccc(Nc2cc3[nH]c(-c4cn[nH]c4)cc3cn2)cc1                 6.82
 5  Cn1cc(-c2cc3cnc(Nc4ccc(-c5ccnn5C)cc4Cl)cc3n2C(=O)OC(C)(C)C)cn1                 7.72
 6  Cn1cc(-c2cc3cnc(Nc4ccc(-c5cncs5)cc4Cl)cc3n2C(=O)OC(C)(C)C)cn1                 8.05
 7  COc1cc(C(=O)N2CCS(=O)(=O)CC2)ccc1Nc1cc2[nH]c(-c3cnn(C)c3)cc2cn1                 8.15
 8  CN(C)C(=O)c1ccc(Nc2cc3c(cn2)cc(-c2cnn(C)c2)n3C(=O)OC2CCC2)c(Cl)c1                 8.52
 9  COc1cc(-c2cnn(C)c2)ccc1Nc1cc2c(cn1)cc(-c1cnn(C)c1)n2C(=O)OC(C)C                 8.15
10  COc1cc(C(=O)NC2CCN(C)CC2)ccc1Nc1cc2[nH]c(-c3cnn(C)c3)cc2cn1                 7.38
11  Cn1cncc1-c1ccc(Nc2cc3[nH]c(-c4cnco4)cc3cn2)c(Cl)c1                 8.30
12  CN(C)C(=O)c1ccc(Nc2cc3c(cn2)c(Cl)c(-c2cnn(C)c2)n3CC2CCCC2)c(Cl)c1                 7.01
13  Cn1cc(-c2cc3cnc(Nc4ccc(-c5cncn5C)cc4Cl)cc3n2C(=O)OC2CCC2)cn1                 8.30
14  COc1cc(CN2CCS(=O)(=O)CC2)ccc1Nc1cc2[nH]c(-c3cnn(C)c3)cc2cn1                 8.00
15  COc1cc(-c2ccc(Nc3cc4[nH]c(-c5cnn(C)c5)cc4cn3)c(Cl)c2)ccn1                 6.74
16  Cc1ncc(-c2ccc(Nc3cc4[nH]c(-c5cnn(C)c5)cc4cn3)c(Cl)c2)n1C                 8.30
